# Test system: SK-MEL-28
# Assay Info: NCI tumour cell line growth inhibition, 48 h
Calls of active or inactive are those of the source. No stated cut-off is given here; in the data, active = GI50 up to about 1.1 µM and inactive = higher. Where a SMILES comes first, the peptide text is derived from it. The star is where a group is joined. Boc = CC(C)(C)OC(=O)*
Classes used: True for active, False for inactive

Compound	Label Class
Nc1nc(N)c2cc(Sc3ccc4nc(N)nc(N)c4c3)ccc2n1	False
CC(C)N(CC(=O)O)CC(=O)O	False
CC(=O)C(C)C(=O)N1C(=O)N(C)C2(C)N(C)C(=O)NC12C (stereo not given)	False
Cc1cccc(C)c1N1C(=O)C(=O)C(c2nc3ccccc3s2)/C(=N/NC(=O)NN)C1=O (stereo not given)	False
N=C(N)N/N=C/c1c(Cl)nc2sccn12	False
Cc1ccc(/C=C2\CCCc3ccccc3C2=O)cc1	False
CNC(=O)CNC(=O)C(NC(=O)CNC(=O)C1CCCN1C(=O)C(C)NC(=O)C(NC(=O)OC(C)(C)C)C(C)C)C(C)C (stereo not given) (Boc-VAPGVG-NHMe; configuration not given here)	False
CC1(C)CS(=O)(=O)CC(C)(C)C(=N/N)/C1=N\N	False
COc1c2cc([N+](=O)[O-])cc1CN(C(=O)C(F)(F)F)CCOCCN(C(=O)C(F)(F)F)C2	False
Cc1ccc2[nH]c(Sc3c([N+](=O)[O-])ncn3C)nc2c1	False
CC(=O)Oc1ccc2c(-c3ccccc3)c(Oc3ccc(Cl)cc3)c(=O)oc2c1	False
CCOC(=O)CCSS(=O)(=O)C(F)(F)F	False
Cc1cc(NC(=S)SCc2ccc(F)cc2)c([N+](=O)[O-])cc1C	False
COC(C(O)CO)C(O)C(O)C(=O)NNc1ccccc1 (stereo not given)	False
CC1C2=C(CCCC2=O)N(c2ccc(Cl)cc2)C2=C1C(=O)CCC2	False
COc1ccc(C2C(=O)c3ccc(OC)cc3OC2c2cccnc2)cc1 (stereo not given)	False
COc1ccc(/C(=N/NC(N)=O)C2(O)C(=O)Nc3ccc([N+](=O)[O-])cc32)cc1 (stereo not given)	False
C/C=C(\NC(=O)C(CCCCN)NC(=O)C(C)NC(=O)C1CSC(C)C(NC(=O)C2CSCC(NC(=O)C(C)NC(=O)C(N)C(C)CC)C(=O)NC(CCCCN)C(=O)NC(Cc3ccccc3)C(=O)NC(CC(C)C)C(=O)N2)C(=O)N2CCCC2C(=O)NCC(=O)N1)C(=O)NCC(=O)NC1CSCC2NC(=O)C(Cc3ccc(O)cc3)NC(=O)C(CSC=CNC2=O)NC(=O)C(CC(N)=O)NC(=O)C(Cc2ccccc2)NC1=O (stereo not given)	False
S=c1[nH]nc(Cn2c3ccc(Br)cc3c3nc4ccccc4nc32)o1	False
O=C1CC(O)(c2ccccc2)C(c2ccccc2)=C1c1ccccc1 (stereo not given)	False
CN1N=C2c3ccccc3CC[C@H]2C1c1ccccc1 (stereo not given in full)	False
Cc1ccc(/C=C/c2n[nH]c(N/N=C/c3ccc4c(c3)OCO4)nc2=O)cc1	False
Nc1ccccc1/N=C/c1cc2cc([N+](=O)[O-])ccc2s1	False
Cc1ccc(N2C=Nn3c(nc4sc5c(c4c3=O)CCCC5)C2)cc1	False
Cc1cccc(C(C)C)c1N1C(=O)C(=O)C(c2nc3ccccc3o2)C(=O)C1=O	False
CSC1=N/C(=C\c2ccco2)C(=O)N1CN1CCCCC1	False
COC(=O)CC(CC(=O)C(=O)OC)C(=O)OC (stereo not given)	False
COP(=O)(OC)c1ccc(NCc2cc(O)ccc2O)cc1	False
Nc1cc(N2CCOCC2)nc(=O)n1-c1ccc(Cl)cc1	False
CC(C)(C)[Si](C)(C)OCC1OC(n2cnc3c(NC(=O)c4ccccc4)ncnc32)CC1O (stereo not given)	False
CO/N=C(\C(=O)[N-]n1cn[n+](CC(=O)OC(C)(C)C)c1)c1csc(NC(c2ccccc2)(c2ccccc2)c2ccccc2)n1	False
OC(c1cc(C(F)(F)F)nc2c(Cl)cc(Cl)cc12)C1CCCCN1 (stereo not given)	False
O=C1NC(Nc2cccc(Cl)c2)=N/C1=C\c1ccc(Cl)c(Cl)c1	False
Cc1nn(-c2ccccc2)c(C)c1/C=N/N=C1\S/C(=C\c2ccc(Cl)cc2)C(=O)N1c1ccccc1	False
N#CSc1[nH]cnc1C(N)=O	False
O=c1c(Cl)nsnc1Cl	False
Clc1sc(Cl)c2c1[C@@H](Cl)C[C@@H]2Br	False
COC1OC(CBr)C(OC(=O)c2ccccc2)C(O)C1Br (stereo not given)	False
Cc1cccc(/C=N\NC(=S)N2CCCCC2)n1	True
Cc1cc2c(c(S(=O)(=O)c3ccc(Cl)cc3[N+](=O)[O-])c1)NCCC2	False
